tested on: α-isomaltosyl-transferring enzyme from Bacillus globisporus C11; assay: Influence of metal ions on enzyme activity; format: biochemical; settings: 1 mM metal ion; enzyme of Strain C11
So I've got a bunch of compounds here, and I need their Relative activity values.

Relative activity for [Ni+2] [Ni^2+] ? 89%

Next compound up: [Co+2] [Co^2+] 89%

Could you do the same for [Ba+2] [Ba^2+] , please? 90%

What do you get for [Mg+2] [Mg^2+] ? 91%

Now the compound [Al+3] [Al^3+] 89%

Likewise for [Ca+2] [Ca^2+] ? 91%

====

test system: α-isomaltosyl-transferring enzyme from Arthrobacter ramosus S1; assay: Influence of metal ions on enzyme activity; format: biochemical; settings: 1 mM metal ion; enzyme of Strain S1
Task for the reader: assign each of the following compounds its reported Relative activity.
Value expressed in %; do not type the unit.

Given the compound [Al+3] , what is its reported Relative activity? 93

Same question for [Pb+2] please. 85

Further, for [Ca+2] ? 103

[Cu+2] ? 2

For O=C(O)CN(CCN(CC(=O)O)CC(=O)O)CC(=O)O then? 91

Another compound to look at: [Co+2] 91
